For each entry below, report its pKd value.
# assayed_target: T1, recombinant human activated Factor VII (FVIIa) (human, UniProt P08709 61-212; P08709 213-466, Gla domain: ten glutamate residues may be gamma-carboxylated)
# T1 construct: two-chain form after cleavage between Arg152 and Ile153; light chain (Gla, EGF domains) and heavy chain (protease domain) tethered by a disulfide bond; also called rFVIIa; human FVIIa
# T1 sequence 1: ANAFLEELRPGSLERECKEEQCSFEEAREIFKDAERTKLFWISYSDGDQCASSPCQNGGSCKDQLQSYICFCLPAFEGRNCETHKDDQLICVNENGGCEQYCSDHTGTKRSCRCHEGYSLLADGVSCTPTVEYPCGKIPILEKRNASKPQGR
# T1 sequence 2: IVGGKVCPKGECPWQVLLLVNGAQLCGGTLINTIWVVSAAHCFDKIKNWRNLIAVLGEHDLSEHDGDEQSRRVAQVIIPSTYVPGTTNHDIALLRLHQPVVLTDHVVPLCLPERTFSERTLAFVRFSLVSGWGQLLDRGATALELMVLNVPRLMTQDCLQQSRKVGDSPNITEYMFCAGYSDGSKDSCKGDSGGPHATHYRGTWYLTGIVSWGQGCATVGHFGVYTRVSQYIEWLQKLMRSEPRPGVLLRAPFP
# test_protocol: Bio-Layer Interferometry (Fortebio), antibody on anti-human tips, FVIIa 25-200 nM
One number for each entry, as −log10 of the molar value.

{"binder": "mAb0130 (antibody, human IgG4 S228P, kappa, V domains shown, humanized 11F2 variant, first round) VH: DVQLQESGPGLVEPSQTLSLTCTVSGYSITSDSAWSWIRQFPGKKLEWMGYIQYSGSTNYNPSLKSRVTISRDTSKNQFSLKLSSVTAEDTAVYYCARSVNYYGNSFAVGYWGQGTSVTVSS VL: EIVLTQSPATLSLSPGERATLSCRASQGISDYLHWYQQKPGEAPRLLIKYTSQPATGIPARFSGSGSGTDFTLTISSLEPEDFGVYYCQNGHSFPLTFGAGTKLELKR", "pKd": 8.74}
{"binder": "mAb0116 (antibody, human IgG4 S228P, kappa, V domains shown, humanized 11F2 variant, first round) VH: DVQLQESGPGLVEPSQTLSLTCTVSGYSITSDSAWSWIRQFPGKKLEWMGYIQYSGSTNYNPSLKSRVTISRDTSKNQFSLKLSSVTAEDTAVYYCARSVNYYGNSFAVDYWGQGTSVTVSS VL: EIVLTQSPATLSLSPGERATLSCRASQGISDYLHWYQQKPGEAPRLLIKYTSQPATGIPARFSGSGSGTDFTLTISSLEPEDVGVYYCQNGHSFPLTFGAGTKLELKR", "pKd": 7.49}
{"binder": "mAb0126 (antibody, human IgG4 S228P, kappa, V domains shown, humanized 11F2 variant, first round) VH: DVQLQESGPGLVEPSQTLSLTCTVSGYSITSDSAWSWIRQFPGKKLEWMGYIQYSGSTNYNPSLKSRVTISRDTSKNQFSLKLSSVTAEDTAVYYCARSVNYYGNSFAVGYWGQGTSVTVSS VL: EIVLTQSPATLSLSPGERATLSCRASQGVSDYLHWYQQKPGEAPRLLIKYTSQPATGIPARFSGSGSGTDFTLTISSLEPEDVGVYYCQNGHSFPLTFGAGTKLELKR", "pKd": 8.60}
{"binder": "mAb0109 (antibody, human IgG4 S228P, kappa, V domains shown, humanized 11F2 variant, first round) VH: DVQLQESGPGLVEPSQSLSLTCTVTGYSITSDSAWSWIRQFPGNKLEWMGYIQYSGSTNYNPSLKSRISVTRDTSKNQFFLRLSSVTAEDTATYYCTRSVNYYGNSFAVGYWGQGTSVTVSS VL: EIVLTQSPATLSLSPGERATLSCRASQGISDYLHWYQQKPGEAPRLLIKYTSQPATGIPARFSGSGSGTDFTLTISSLEPEDVGVYYCQSGHSFPLTFGAGTKLELKR", "pKd": 7.96}
{"binder": "mAb0125 (antibody, human IgG4 S228P, kappa, V domains shown, humanized 11F2 variant, first round) VH: DVQLQESGPGLVEPSQTLSLTCTVSGYSITSDSAWSWIRQFPGKKLEWMGYIQYSGSTNYNPSLKSRVTISRDTSKNQFSLKLSSVTAEDTAVYYCARSVNYYGNSFAVGYWGQGTSVTVSS VL: EIVLTQSPATLSLSPGERATLSCRASQGISDYLHWYQQKPGEAPRLLIKYTSQPATGIPARFSGSGSGTDFTLTISSLEPEDVAVYYCQNGHSFPLTFGAGTKLELKR", "pKd": 8.77}
{"binder": "mAb0128 (antibody, human IgG4 S228P, kappa, V domains shown, humanized 11F2 variant, first round) VH: DVQLQESGPGLVEPSQTLSLTCTVSGYSITSDSAWSWIRQFPGKKLEWMGYIQYSGSTNYNPSLKSRVTISRDTSKNQFSLKLSSVTAEDTAVYYCARSVNYYGNSFAVGYWGQGTSVTVSS VL: EIVLTQSPATLSLSAGERATLSCRASQGISDYLHWYQQKSGEAPRLLIKYTSQPATGIPARFSGSGSGTDFTLTISSLEPEDVGVYYCQNGHSFPLTFGAGTKLELKR", "pKd": 8.77}
{"binder": "mAb0124 (antibody, human IgG4 S228P, kappa, V domains shown, humanized 11F2 variant, first round) VH: DVQLQESGPGLVEPSQTLSLTCTVSGYSITSDSAWSWIRQFPGKKLEWMGYIQYSGSTNYNPSLKSRVTISRDTSKNQFSLKLSSVTAEDTAVYYCARSVNYYGNSFAVGYWGQGTSVTVSS VL: EIVLTQSPATLSLSPGERATLSCRASQGISDYLHWYQQKPGQAPRLLIKYTSQPATGIPARFSGSGSGTDFTLTISSLEPEDVGVYYCQNGHSFPLTFGAGTKLELKR", "pKd": 8.74}
{"binder": "mAb0115 (antibody, human IgG4 S228P, kappa, V domains shown, humanized 11F2 variant, first round) VH: DVQLQESGPGLVEPSQTLSLTCTVSGYSITSDSAWSWIRQPPGKKLEWMGYIQYSGSTNYNPSLKSRVTISRDTSKNQFSLKLSSVTAEDTAVYYCARSVNYYGNSFAVGYWGQGTSVTVSS VL: EIVLTQSPATLSLSPGERATLSCRASQGISDYLHWYQQKPGEAPRLLIKYTSQPATGIPARFSGSGSGTDFTLTISSLEPEDVGVYYCQNGHSFPLTFGAGTKLELKR", "pKd": 8.82}
{"binder": "mAb0129 (antibody, human IgG4 S228P, kappa, V domains shown, humanized 11F2 variant, first round) VH: DVQLQESGPGLVEPSQTLSLTCTVSGYSITSDSAWSWIRQFPGKKLEWMGYIQYSGSTNYNPSLKSRVTISRDTSKNQFSLKLSSVTAEDTAVYYCARSVNYYGNSFAVGYWGQGTSVTVSS VL: EIVLTQSPATLSLSPGERATLSCRASQGISDYLHWYQQKPGEAPRLLIKYASQPATGIPARFSGSGSGTDFTLTISSLEPEDVGVYYCQNGHSFPLTFGAGTKLELKR", "pKd": 8.66}

Moving on to the next binder.
Looking for the measured pKd of mAb0120 (antibody, human IgG4 S228P, kappa, V domains shown, humanized 11F2 variant, first round) VH: DVQLQESGPGLVEPSQTLSLTCTVSGYSISSDSAWSWIRQFPGKKLEWMGYIQYSGSTNYNPSLKSRVTISRDTSKNQFSLKLSSVTAEDTAVYYCARSVNYYGNSFAVGYWGQGTSVTVSS VL: EIVLTQSPATLSLSPGERATLSCRASQGISDYLHWYQQKPGEAPRLLIKYTSQPATGIPARFSGSGSGTDFTLTISSLEPEDVGVYYCQNGHSFPLTFGAGTKLELKR , can you help?
8.77

Data origin, for the record: patent US20220064329A1
